// reported IC50 for each item listed
System: Human Oral Epidermoid Carcinoma (multi-drug resistance, KB-V-1)
ASSAY NOTES: MTT cytotoxicity, KB-V-1
Assay type: cell-based
EXPERIMENTAL CONTEXT: MTT, growth inhibition, multi-drug resistant
Your answer should be a plain number; it is taken to be in nM.

Examples with their reported IC50 follow.
IC50 for "COc1cc(-c2c3nc(c(-c4cc(OC)c(OC)c(OC)c4)c4ccc([n-]4)c(-c4cc(OC)c(OC)c(OC)c4)c4nc(c(-c5cc(OC)c(OC)c(OC)c5)c5ccc2[n-]5)C=C4)C=C3)cc(OC)c1OC.[Au+3].[Cl-]" is 710

IC50 for "Clc1ccc(-c2c3nc(c(-c4ccc(Cl)cc4)c4ccc([n-]4)c(-c4ccc(Cl)cc4)c4nc(c(-c5ccc(Cl)cc5)c5ccc2[n-]5)C=C4)C=C3)cc1.[Au+3].[Cl-]" is 230

IC50 for "C1=Cc2nc1c(-c1ccccc1)c1ccc([n-]1)c(-c1ccccc1)c1nc(c(-c3ccccc3)c3ccc([n-]3)c2-c2ccccc2)C=C1.[Au+3].[Cl-]" is 120

Further cases:
IC50 for "Brc1ccc(-c2c3nc(c(-c4ccc(Br)cc4)c4ccc([n-]4)c(-c4ccc(Br)cc4)c4nc(c(-c5ccc(Br)cc5)c5ccc2[n-]5)C=C4)C=C3)cc1.[Au+3].[Cl-]" is 640

IC50 for N.N.[Cl][Pt][Cl] [Pt(NH3)2Cl2, reference compound] is 10200
